All figures here come from paper PMC5540273.

%Inh values by entry
# Test system: PDGFRB;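 note: KINOMEscan kinase panel screen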
# STATED CONDITIONS: concentration: 1 μM, replicates: in singlicate; n = 1
Kindly provide the numeric value in % only, without the unit symbol.

Record excerpt, results attached:
compound=Cc1c2ccc(N(C)c3ccnc(Nc4cccc(S(N)(=O)=O)c4)n3)cc2nn1Cc1ccccc1.Cl.Cl recorded_metric=%Inh quantity_unit=% reading=100
compound="Cc1c(Cn2c(C)nn3c(=O)cc(N4CCOC(C)C4)nc23)cccc1C(F)(F)F (stereo not drawn)" recorded_metric=%Inh quantity_unit=% reading=18
compound=Fc1ccc(-c2nn3c(OCC(F)(F)F)cccc3c2-c2ccncc2)cc1 recorded_metric=%Inh quantity_unit=% reading=21

# next compound below
Item: `O=C(NCCCN1CCOCC1)c1cccc(Nc2nccc(Nc3ccc(Oc4ccccc4)cc3)n2)c1` | %Inh: 99.6
